The origin of these recorded values is PubChem BioAssay (NCATS).

// values below are reported activation
# study_system: Cellular tumor antigen p53 (Homo sapiens) (UniProt P04637)
# Sequence (P04637 whole entry, looked up): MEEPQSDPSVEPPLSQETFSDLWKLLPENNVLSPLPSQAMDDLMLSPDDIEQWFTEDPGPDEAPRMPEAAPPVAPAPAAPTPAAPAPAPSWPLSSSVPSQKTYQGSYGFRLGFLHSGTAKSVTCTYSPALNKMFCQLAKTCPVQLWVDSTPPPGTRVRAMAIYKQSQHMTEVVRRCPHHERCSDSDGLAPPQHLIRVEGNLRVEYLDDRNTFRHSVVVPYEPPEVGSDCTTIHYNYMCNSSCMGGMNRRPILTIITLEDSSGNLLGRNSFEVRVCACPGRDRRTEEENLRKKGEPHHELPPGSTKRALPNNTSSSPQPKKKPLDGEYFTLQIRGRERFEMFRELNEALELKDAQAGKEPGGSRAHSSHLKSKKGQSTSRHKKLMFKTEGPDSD
# protocol_text: Primary qHTS for small molecule compounds that upregulate eGFP-tagged delta133p53alpha (in N-terminal) cells. (AID 2060322);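 note: cells pre-induced with doxycycline then dosed without doxycycline; 0% = DMSO vehicle and 100% = reference activator; nearly all actives have a fitted effect of over 75% in size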
# reported_conditions: NCI-H358 eGFP-delta133p53alpha fluorescence, 24 h; hits give high values
Records with an inconclusive call do not appear.

[
  {
    "compound": "C/C=C(/C(=C/C)c1ccc(O)cc1)c1ccc(O)cc1",
    "study_system": "Cellular tumor antigen p53 (Homo sapiens) (UniProt P04637)",
    "activation (%)": 15.1
  },
  {
    "compound": "O=C1c2ccccc2C(=O)c2c1ccc(O)c2O",
    "study_system": "Cellular tumor antigen p53 (Homo sapiens) (UniProt P04637)",
    "activation (%)": -14.2
  },
  {
    "compound": "CN(Cc1ccc(C(=O)O)cc1)c1ccc(OCc2c(-c3c(Cl)cccc3Cl)noc2C2CC2)nc1C(F)(F)F",
    "study_system": "Cellular tumor antigen p53 (Homo sapiens) (UniProt P04637)",
    "activation (%)": -10.5
  },
  {
    "compound": "CC(S)C(=O)NCC(=O)O (stereo unspecified)",
    "study_system": "Cellular tumor antigen p53 (Homo sapiens) (UniProt P04637)",
    "activation (%)": 9.72
  },
  {
    "compound": "NC1CCCCN(c2c(F)cc3c(=O)c(C(=O)O)cn(C4CC4)c3c2Cl)C1 (stereo unspecified)",
    "study_system": "Cellular tumor antigen p53 (Homo sapiens) (UniProt P04637)",
    "activation (%)": -8.59
  },
  {
    "compound": "O=C(CCCCCCNC(=O)c1cnc(N(c2ccccc2)c2ccccc2)nc1)NO",
    "study_system": "Cellular tumor antigen p53 (Homo sapiens) (UniProt P04637)",
    "activation (%)": 7.34
  }
]

---

# protocol_text: BET inhibitor-based combinations targeting novel dependencies in MECOM-rearranged (r) AML: OCI-AML3 cell line (AID 2202232); note: nearly all actives have a fitted effect of over 35% in size
# reported_conditions: CellTiter-Glo luminescence, 48 h; OCI-AML3 viability; series mostly up to 46 µM
Records with an inconclusive call do not appear. Calls of active or inactive are those of the source. Calls come from the whole dose curve; as a rule, active = well fitted inhibition curve with a large enough effect; inconclusive = small, poorly fitted or top-dose-only effect; inactive = no such curve, though single readings can be large or run the other way.
Labels: class 1 for active, class 0 for inactive

[
  {
    "molecule": "CC(=O)Nc1ccc([C@H](C)C(=O)Nc2ncc(C(C)C)s2)cc1",
    "assigned_class": "class 1"
  },
  {
    "molecule": "C[C@@H]1CN(c2c(F)c(N)c3c(=O)c(C(=O)O)cn(C4CC4)c3c2F)C[C@H](C)N1",
    "assigned_class": "class 0"
  },
  {
    "molecule": "CC(C)(C)c1cc(C(=O)O)c(NC(=O)Nc2ccc3[nH]ncc3c2)s1",
    "assigned_class": "class 0"
  },
  {
    "molecule": "Oc1ccc(C2=Cc3ccc(O)cc3OC2)cc1",
    "assigned_class": "class 1"
  },
  {
    "molecule": "CC(=O)O[C@H]1C[C@@H]2CC[C@@H]3[C@H](CC[C@@]4(C)[C@H]3C[C@H]([N+]3(C)CCCCC3)[C@@H]4OC(C)=O)[C@@]2(C)C[C@@H]1N1CCCCC1",
    "assigned_class": "class 0"
  },
  {
    "molecule": "CCOC(=O)C(C)Oc1cccc2c(=O)n(CC(=O)Nc3ccc4c(c3)OCCO4)ccc12 (stereo not drawn)",
    "assigned_class": "class 1"
  },
  {
    "molecule": "O=C(NOCC1CC1)c1ccc(F)c(F)c1Nc1ccc(I)cc1Cl",
    "assigned_class": "class 1"
  },
  {
    "molecule": "Cc1ccc(S(=O)(=O)Nc2nc3ccccc3nc2Nc2ccc3nsnc3c2)cc1",
    "assigned_class": "class 0"
  },
  {
    "molecule": "CCCOc1ccc(CCc2nc3cc(-c4c(C)noc4C)ccc3n2CCN2CCOCC2)cc1",
    "assigned_class": "class 1"
  },
  {
    "molecule": "C=CC(=O)Nc1cccc(Oc2nc(Nc3ccc(N4CCN(C)CC4)cc3OC)ncc2Cl)c1",
    "assigned_class": "class 1"
  },
  {
    "molecule": "CNC1CCC(N(Cc2cccc(-c3ccncc3)c2)C(=O)c2sc3ccccc3c2Cl)CC1 (stereo not drawn)",
    "assigned_class": "class 1"
  },
  {
    "molecule": "Nc1nc(=O)n([C@H]2C[C@H](O)[C@@H](CO)O2)cc1F",
    "assigned_class": "class 1"
  },
  {
    "molecule": "CC(C)[C@H](CO)Nc1nc(Nc2cccc(Cl)c2)c2ncn(C(C)C)c2n1",
    "assigned_class": "class 1"
  },
  {
    "molecule": "CCn1nnc2c(N3CCOCC3)nc(-c3ccc(NC(=O)Nc4ccc(C(=O)N5CCN(C)CC5)cc4)cc3)nc21",
    "assigned_class": "class 1"
  },
  {
    "molecule": "Oc1ccc(/C=C/c2cc(O)cc(O)c2)cc1",
    "assigned_class": "class 1"
  },
  {
    "molecule": "CCCCCNC(=O)N1CCC(CN(Cc2ccc(Cl)cc2)Cc2ccc([N+](=O)[O-])s2)C1 (stereo not drawn)",
    "assigned_class": "class 1"
  },
  {
    "molecule": "COc1ncnc(NS(=O)(=O)c2ccc(N)cc2)c1OC",
    "assigned_class": "class 0"
  },
  {
    "molecule": "CCCc1nc2c(C)cc(-c3nc4ccccc4n3C)cc2n1Cc1ccc(-c2ccccc2C(=O)O)cc1",
    "assigned_class": "class 0"
  },
  {
    "molecule": "O=C(Nc1ccc(-c2ccnc(Nc3ccc(N4CCOCC4)cc3)n2)cc1)C1CCCN1 (stereo not drawn)",
    "assigned_class": "class 1"
  },
  {
    "molecule": "COc1cccc2c1C(=O)c1c(O)c3c(c(O)c1C2=O)C[C@@](O)(C(=O)CO)C[C@@H]3O[C@H]1C[C@H](N)[C@H](O)[C@H](C)O1",
    "assigned_class": "class 1"
  },
  {
    "molecule": "O=C(CN1C(=O)C2(CCCC2)NC[C@H]1c1cc(F)cc(F)c1)Nc1ccc2c(c1)C[C@@]1(C2)C(=O)Nc2ncccc21",
    "assigned_class": "class 0"
  },
  {
    "molecule": "COCCCOc1ccnc(CS(=O)c2nc3ccccc3[nH]2)c1C (stereo not drawn)",
    "assigned_class": "class 0"
  },
  {
    "molecule": "O=c1cc(CN2CCOCC2)occ1OCCCCCSc1ccnc2cc(C(F)(F)F)ccc12",
    "assigned_class": "class 0"
  },
  {
    "molecule": "CC(C)(CO)[C@@H](O)C(=O)NCCC(=O)O",
    "assigned_class": "class 0"
  },
  {
    "molecule": "C[C@H](NC(=O)[C@@H](O)c1cc(F)cc(F)c1)C(=O)N[C@@H]1C(=O)N(C)c2ccccc2-c2ccccc21",
    "assigned_class": "class 0"
  },
  {
    "molecule": "Cc1c(NC(=O)c2ccc(C(C)(C)C)cc2)cccc1-c1cn(C)c(=O)c(Nc2ccc(C(=O)N3CCOCC3)cc2)n1",
    "assigned_class": "class 0"
  },
  {
    "molecule": "CN1c2ccccc2C(=O)N2CCc3c([nH]c4ccccc34)C21 (stereo not drawn)",
    "assigned_class": "class 1"
  },
  {
    "molecule": "O=C1N(c2ccccc2)c2ccccc2C1(Cc1ccncc1)Cc1ccncc1",
    "assigned_class": "class 0"
  },
  {
    "molecule": "NCC(=O)Nc1ccc(-n2nc(C(F)(F)F)cc2-c2ccc3c(ccc4ccccc43)c2)cc1",
    "assigned_class": "class 1"
  },
  {
    "molecule": "CCOC(=O)[C@H](CCc1ccccc1)N[C@@H](C)C(=O)N1[C@H](C(=O)O)C[C@@H]2CCC[C@@H]21",
    "assigned_class": "class 0"
  },
  {
    "molecule": "CNC(=O)c1ccccc1Nc1nc(Nc2ccc(N3CCOCC3)cc2OC)ncc1Cl",
    "assigned_class": "class 1"
  },
  {
    "molecule": "CN(C)c1cccc(-c2c3c(=O)n(-c4ccccc4Cl)[nH]c3cc(=O)n2C)c1",
    "assigned_class": "class 0"
  },
  {
    "molecule": "Cc1cc(C(=O)N2CCN(c3cccc(Cl)c3)CC2)n(-c2ccccc2)n1",
    "assigned_class": "class 1"
  },
  {
    "molecule": "CC[C@H](C)C(=O)O[C@H]1CCC=C2C=C[C@H](C)[C@H](CC[C@@H]3C[C@@H](O)CC(=O)O3)[C@H]21",
    "assigned_class": "class 1"
  },
  {
    "molecule": "CCCC(CCC)C(=O)O",
    "assigned_class": "class 0"
  },
  {
    "molecule": "COc1ccc2c(OCc3nnc4ccc(-c5ccccc5)nn34)ccnc2c1",
    "assigned_class": "class 0"
  },
  {
    "molecule": "O=C1CCC[C@@H]2[C@H]3CCC[N+]4([O-])CCC[C@@H](CN12)[C@@H]34 (stereo partly drawn)",
    "assigned_class": "class 0"
  },
  {
    "molecule": "COC(=O)Nc1nc2ccc(C(=O)c3cccs3)cc2[nH]1",
    "assigned_class": "class 1"
  }
]
